Test system: Plasma
Assay: Stability of the compound in healthy human spiked plasma assessed as Colistin methanesulfonate A degradation at 80 mg, iv administered for 60 mins measured after 1 hr in room temperature by LC-MS/MS assay
Format: ADME, organism-based
Conditions: in vivo
reported-metric: Stability (%)
Form entry: value (%) — number only.

Prompt: Query for Plasma: what Stability does the record show for COLISTIMETHATE SODIUM ?
Response: 3.3

----------
Assay: Stability of the compound in healthy human spiked urine assessed as Colistin methanesulfonate B degradation at 80 mg, iv administered for 60 mins measured after 1 hr in room temperature by LC-MS/MS assay
Assay type: ADME, organism-based
Settings: in vivo
reported-metric: Stability (%)
Could you give me the number in %? Just the number is fine.

Prompt: Please report the recorded Stability for COLISTIMETHATE SODIUM .
Response: 16.8

----------
Tested on: Plasma
Test: Stability of the compound in healthy human spiked plasma assessed as Colistin methanesulfonate B degradation at 80 mg, iv administered for 60 mins measured after 1 hr in room temperature by LC-MS/MS assay
Format: ADME, organism-based
Details: in vivo
reported-metric: Stability (%)
Kindly provide the numeric value in % only, without the unit symbol.

Prompt: Consider the sequence COLISTIMETHATE SODIUM and give its measured Stability.
Response: 2.3

----------
Test: Stability of the compound in healthy human spiked urine assessed as Colistin methanesulfonate A degradation at 80 mg, iv administered for 60 mins measured after 4 hrs in room temperature by LC-MS/MS assay
Format: ADME, organism-based
Details: in vivo
reported-metric: Stability

Prompt: Please give the measured Stability for this sequence: COLISTIMETHATE SODIUM
Response: 29.2%

----------
Experiment: Stability of the compound in healthy human spiked urine assessed as Colistin methanesulfonate B degradation at 80 mg, iv administered for 60 mins measured after 4 hrs in room temperature by LC-MS/MS assay
Format: ADME, organism-based
Settings: in vivo
reported-metric: Stability (%)
Reply with just the number (in %).

Prompt: I would be grateful if you could share the reported Stability for COLISTIMETHATE SODIUM .
Response: 21.4

----------
Test: Stability of the compound in healthy human spiked urine assessed as Colistin methanesulfonate A degradation at 80 mg, iv administered for 60 mins measured after 2 freeze-thaw cycles by LC-MS/MS assay
Type: ADME, organism-based
Details: in vivo, 1 h
reported-metric: Stability (%)
Provide the reading as a plain figure in %.

Prompt: I'd like to know its Stability. The sequence in question is COLISTIMETHATE SODIUM
Response: 19.9

----------
Test: Stability of the compound in healthy human spiked urine assessed as Colistin methanesulfonate A degradation at 80 mg, iv administered for 60 mins measured after 1 hr in room temperature by LC-MS/MS assay
Format: ADME, organism-based
Conditions: in vivo
reported-metric: Stability
Units required after the number.

Prompt: Return reported Stability; argument: COLISTIMETHATE SODIUM
Response: 22.3%

----------
Experiment: Stability of the compound in healthy human spiked urine assessed as Colistin methanesulfonate A degradation at 80 mg, iv administered for 60 mins measured at room temperature by LC-MS/MS assay
Format: ADME, organism-based
Conditions: in vivo, 1 h
reported-metric: Stability (%)
Express the result in % but write the number alone.

Prompt: What value of Stability has been reported for the following sequence? COLISTIMETHATE SODIUM
Response: 16.4

----------
Assay: Stability of the compound in healthy human spiked urine assessed as Colistin methanesulfonate B degradation at 80 mg, iv administered for 60 mins measured at room temperature by LC-MS/MS assay
Type: ADME, organism-based
Conditions: in vivo, 1 h
reported-metric: Stability (%)
Just the number please, in %, no unit attached.

Prompt: Which value of Stability has been reported for COLISTIMETHATE SODIUM in the records?
Response: 11.6

----------
Test system: Plasma
Test: Stability of the compound in healthy human spiked plasma assessed as Colistin methanesulfonate A degradation at 80 mg, iv administered for 60 mins measured after 4 hrs in room temperature by LC-MS/MS assay
Format: ADME, organism-based
Settings: in vivo
reported-metric: Stability (%)
Answer in %, number only, no unit symbol.

Prompt: // lookup Stability for COLISTIMETHATE SODIUM
Response: 13.9

----------
Test system: Plasma
Experiment: Stability of the compound in healthy human spiked plasma assessed as Colistin methanesulfonate A degradation at 80 mg, iv administered for 60 mins measured under acidic pretreatment by LC-MS/MS assay
Type: ADME, organism-based
Conditions: in vivo, 1 h
reported-metric: Stability (%)
Your answer should be a plain number; it is taken to be in %.

Prompt: What value of measured Stability is listed for COLISTIMETHATE SODIUM ?
Response: 32.5

----------
Tested on: Plasma
Assay: Stability of the compound in healthy human spiked plasma assessed as Colistin methanesulfonate B degradation at 80 mg, iv administered for 60 mins measured after 4 hrs in room temperature by LC-MS/MS assay
Assay type: ADME, organism-based
Settings: in vivo
reported-metric: Stability (%)
// note: answer is a bare numeric in %

Prompt: Give its Stability value. Item: COLISTIMETHATE SODIUM
Response: 14

----------
System: Plasma
Test: Stability of the compound in healthy human spiked plasma assessed as Colistin methanesulfonate B degradation at 80 mg, iv administered for 60 mins measured under acidic pretreatment by LC-MS/MS assay
Type: ADME, organism-based
Conditions: in vivo, 1 h
reported-metric: Stability (%)
Use % as the unit, but write only the number.

Prompt: Give the measured Stability of COLISTIMETHATE SODIUM .
Response: 29.1

----------
Experiment: Stability of the compound in healthy human spiked urine assessed as Colistin methanesulfonate B degradation at 80 mg, iv administered for 60 mins measured after 2 freeze-thaw cycles by LC-MS/MS assay
Type: ADME, organism-based
Conditions: in vivo, 1 h
reported-metric: Stability (%)
Dear colleague, please return just the value in %, with no unit written.

Prompt: Entry COLISTIMETHATE SODIUM : reported Stability = ?
Response: 14.4
